- system_tested: T1, huIL-17RA-FLAG-polyHis (human, UniProt Q96F46 33-320)
- T1 construct: also called IL-17RA-FLAG-pHis; wild-type IL-17RA
- method_summary: binning; IL-17RA held by bead mAb I
measured_endpoint: normalized MFI
Reply briefly: the number, and no unit.

Quick one: normalized MFI of AMH6/AML6 (antibody, IgG2, V domains shown, human mAb from IgG2 XenoMouse mice; also called AM-6; antibody E) VH: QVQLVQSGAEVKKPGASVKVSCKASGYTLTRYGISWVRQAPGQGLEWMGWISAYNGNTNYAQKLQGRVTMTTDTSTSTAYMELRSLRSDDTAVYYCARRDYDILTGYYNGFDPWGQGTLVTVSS VL: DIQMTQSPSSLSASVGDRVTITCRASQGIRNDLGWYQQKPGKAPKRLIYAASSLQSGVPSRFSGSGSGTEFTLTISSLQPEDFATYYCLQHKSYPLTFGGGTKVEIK ?
4330

Try AMH10/AML10 (antibody, IgG2, V domains shown, human mAb from IgG2 XenoMouse mice; also called AM-10; antibody F) VH: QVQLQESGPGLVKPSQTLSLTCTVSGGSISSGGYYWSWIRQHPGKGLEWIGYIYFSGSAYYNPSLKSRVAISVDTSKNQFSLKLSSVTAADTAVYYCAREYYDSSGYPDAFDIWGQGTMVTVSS VL: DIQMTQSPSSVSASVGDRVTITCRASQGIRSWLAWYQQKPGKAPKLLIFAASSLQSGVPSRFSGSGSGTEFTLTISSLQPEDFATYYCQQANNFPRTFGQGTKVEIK next.
3110

AMH20/AML20 (antibody, IgG2, V domains shown, human mAb from IgG2 XenoMouse mice; also called AM-20; antibody R) VH: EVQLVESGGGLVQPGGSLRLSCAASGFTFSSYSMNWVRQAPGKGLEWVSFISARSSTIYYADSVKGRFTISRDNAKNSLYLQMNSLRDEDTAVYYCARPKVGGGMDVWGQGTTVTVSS VL: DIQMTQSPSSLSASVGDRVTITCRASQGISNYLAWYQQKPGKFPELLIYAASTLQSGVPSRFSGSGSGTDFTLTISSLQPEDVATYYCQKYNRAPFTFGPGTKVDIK , same question.
58

Item: AMH12/AML12 (antibody, IgG2, V domains shown, human mAb from IgG2 XenoMouse mice; also called AM-12; antibody M) VH: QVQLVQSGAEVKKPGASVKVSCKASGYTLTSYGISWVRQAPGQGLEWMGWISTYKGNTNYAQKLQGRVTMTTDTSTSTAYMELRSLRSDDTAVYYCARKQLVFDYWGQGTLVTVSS VL: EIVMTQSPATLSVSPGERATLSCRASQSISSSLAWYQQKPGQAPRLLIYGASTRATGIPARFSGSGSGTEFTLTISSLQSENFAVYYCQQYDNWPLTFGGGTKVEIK
26

src = patent US20120251547A1
